The values you see were collected from ChEMBL document CHEMBL4715841.

# tested-system: Metabotropic glutamate receptor 2 (Homo sapiens, UniProt Q14416)
# Sequence (Q14416 whole entry): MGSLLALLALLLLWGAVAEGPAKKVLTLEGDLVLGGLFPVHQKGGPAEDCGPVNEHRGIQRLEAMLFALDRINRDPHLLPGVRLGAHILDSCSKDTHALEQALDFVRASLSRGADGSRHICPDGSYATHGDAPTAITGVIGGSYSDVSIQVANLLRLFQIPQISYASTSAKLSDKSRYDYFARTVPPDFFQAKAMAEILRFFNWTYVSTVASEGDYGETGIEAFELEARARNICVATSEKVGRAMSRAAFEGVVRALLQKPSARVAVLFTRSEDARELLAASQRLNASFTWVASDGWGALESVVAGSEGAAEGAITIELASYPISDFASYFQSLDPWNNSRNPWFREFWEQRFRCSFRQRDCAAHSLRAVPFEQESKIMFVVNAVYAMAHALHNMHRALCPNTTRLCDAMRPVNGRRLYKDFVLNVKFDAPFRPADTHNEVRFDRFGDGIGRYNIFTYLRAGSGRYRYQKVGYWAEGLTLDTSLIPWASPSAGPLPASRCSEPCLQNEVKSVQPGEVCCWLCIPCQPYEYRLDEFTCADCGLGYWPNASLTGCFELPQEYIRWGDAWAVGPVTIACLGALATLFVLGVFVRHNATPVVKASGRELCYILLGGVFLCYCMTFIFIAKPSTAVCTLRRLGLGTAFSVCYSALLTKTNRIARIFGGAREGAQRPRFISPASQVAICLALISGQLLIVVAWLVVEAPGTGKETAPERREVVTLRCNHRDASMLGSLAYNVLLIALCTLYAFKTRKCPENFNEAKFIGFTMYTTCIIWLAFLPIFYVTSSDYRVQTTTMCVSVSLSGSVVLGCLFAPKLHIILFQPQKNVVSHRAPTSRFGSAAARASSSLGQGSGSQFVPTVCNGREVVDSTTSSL
measured-attribute: pEC50
Worth noting: pEC50 values are minus log10 of concentrations stated in mol/L.

Cc1ccccc1OCCCCN1CCn2c(nc3ccccc32)C1=O on Metabotropic glutamate receptor 2 (Homo sapiens, UniProt Q14416) gives pEC50 = 7.05

O=C1c2nc3ccccc3n2CCN1CCCOc1ccc(Cl)c(Cl)c1 on Metabotropic glutamate receptor 2 (Homo sapiens, UniProt Q14416) gives pEC50 = 7.05

COc1ccc(CCCCN2CCn3c(nc4ccccc43)C2)c(F)c1 on Metabotropic glutamate receptor 2 (Homo sapiens, UniProt Q14416) gives pEC50 = 5.92

Clc1ccc(SCCCN2CCn3c(nc4ccccc43)C2)cc1 on Metabotropic glutamate receptor 2 (Homo sapiens, UniProt Q14416) gives pEC50 = 6.26

Fc1ccc(OCCCN2CCn3c(nc4ccccc43)C2)cc1Cl on Metabotropic glutamate receptor 2 (Homo sapiens, UniProt Q14416) gives pEC50 = 6.77

Clc1ccc(OCCCN2CCn3c(nc4ccccc43)C2)cc1Cl on Metabotropic glutamate receptor 2 (Homo sapiens, UniProt Q14416) gives pEC50 = 7.15

Fc1ccc(CCCCN2CCn3c(nc4ccccc43)C2)c(F)c1 on Metabotropic glutamate receptor 2 (Homo sapiens, UniProt Q14416) gives pEC50 = 6.47

O=C1c2nc3ccccc3n2CCN1CCCCOc1ccc(F)cc1Br on Metabotropic glutamate receptor 2 (Homo sapiens, UniProt Q14416) gives pEC50 = 7.30

Brc1ccc(SCCCN2CCn3c(nc4ccccc43)C2)cc1 on Metabotropic glutamate receptor 2 (Homo sapiens, UniProt Q14416) gives pEC50 = 6.57

c1ccc(SCCCN2CCn3c(nc4ccccc43)C2)cc1 on Metabotropic glutamate receptor 2 (Homo sapiens, UniProt Q14416) gives pEC50 = 6.59

COc1ccc(CCCCN2CCn3c(nc4ccccc43)C2)cc1 on Metabotropic glutamate receptor 2 (Homo sapiens, UniProt Q14416) gives pEC50 = 5.64

Fc1cc(Cl)ccc1CCCCN1CCn2c(nc3ccccc32)C1 on Metabotropic glutamate receptor 2 (Homo sapiens, UniProt Q14416) gives pEC50 = 6.27

----------
# tested-system: Metabotropic glutamate receptor 2 (Homo sapiens, UniProt Q14416)
measured-attribute: pEC50
Worth noting: pEC50 values are minus log10 of concentrations stated in mol/L.

Input c1ccc(CCCCCN2CCn3c(nc4ccccc43)C2)cc1 . Output pEC50: 6.89

Input Fc1ccc(SCCCN2CCn3c(nc4ccccc43)C2)cc1 . Output pEC50: 6.49

Input O=C1c2nc3ccccc3n2CCN1CCCCOc1ccc(C(F)(F)F)cc1 . Output pEC50: 7.40

Input O=C1c2nc3ccccc3n2CCN1CCCCOc1ccc(Cl)cc1 . Output pEC50: 7.15

Input Fc1cc(C(F)(F)F)ccc1CCCCN1CCn2c(nc3ccccc32)C1 . Output pEC50: 6.01

Input c1ccc(CCCCN2CCn3c(nc4ccccc43)C2)cc1 . Output pEC50: 6.38

Input Fc1ccc(SCCCN2CCn3c(nc4ccccc43)C2)cc1F . Output pEC50: 7.05

Input Cn1c(CN2CCC(c3ccccc3F)CC2)nc2ccccc21 . Output pEC50: 6.89

Input Fc1ccc(OCCCN2CCn3c(nc4ccccc43)C2)cc1F . Output pEC50: 6.27

Input COc1ccc(CCN2CCn3c(nc4ccccc43)C2)cc1 . Output pEC50: 5.56

Input Cc1ccc(CCN2CCn3c(nc4ccccc43)C2)cc1 . Output pEC50: 5.61

Input O=C1c2nc3ccccc3n2CCN1CCCCOc1ccc(F)cc1F . Output pEC50: 7.30

Input N#Cc1ccc(CCCCN2CCn3c(nc4ccccc43)C2)cc1 . Output pEC50: 5.62

Input COc1ccccc1C1CCN(Cc2nc3ccccc3n2C)CC1 . Output pEC50: 6.06

Input Fc1ccc(SCCCN2CCn3c(nc4ccccc43)C2)c(F)c1 . Output pEC50: 6.46

Input Fc1cccc(CCN2CCn3c(nc4ccccc43)C2)c1 . Output pEC50: 5.33
